Experiment: refractive index (Na D-line) (dimensionless)
Settings: 298.2 K; 101.33 kPa; Liquid; Standard Abbe refractometry
measurement.kind: refractive index

Cc1ccccc1 [toluene]    1.4938
O [water]    1.3325
CC1CCCCC1 [methylcyclohexane]    1.4198
C1CCCCC1 [cyclohexane]    1.4234
